# System: phosphorylation of CDK1 at Thr14 in HCC1806 cells
# protocolNotes: Cell lysate AlphaLISA assay measuring inhibition of phosphorylation of CDK1 Thr14
# Format: cell-based
# appliedConditions: 4 hours, read-out: Cellular IC50
pIC50: −log10 of the molar value.
For each record, write down the corresponding pIC50.

pIC50 for NC(=O)c1nc2cccnc2c(-c2cccc3[nH]nc(F)c23)c1N [Compound 306] ?
≤ 5.30

What value of pIC50 has been recorded for this entry: Cc1c(O)cccc1-c1c(N)c(C(N)=O)nc2cc(C(F)(F)F)ccc12 (atropisomer, axis not shown) [Compound 148]
≤ 5.30

What does the data say about its pIC50? Entry: NC(=O)c1cc2nccnc2c(-c2cccc(O)c2Cl)c1N (single isomer, unassigned) [Compound 106]
≤ 5.30

Returns the measured pIC50 for the input compound. Input: Cc1ccc(O)c(C)c1-c1c(N)c(C(N)=O)cc2cc(Cl)cnc12 [Compound 177]
6.30 to 7.30

// lookup pIC50 for Cc1c(O)cccc1-c1c(N)c(C(N)=O)cc2cccnc12 (single isomer, unassigned) [Compound 62]
6.30 to 7.30

May I ask what pIC50 has been recorded for Cc1c(O)cccc1-c1c(N)c(C(N)=O)nc2cccc(F)c12 (single isomer, unassigned) [Compound 57] ?
6.30 to 7.30

Any idea what pIC50 was measured for Cc1ccc(O)c(C)c1-c1c(N)c(C(N)=O)nc2c(C(F)(F)F)cccc12 (single isomer, unassigned) [Compound 31] ?
≤ 5.30

Tell me the measured pIC50 of Cc1c(Cl)cncc1C1=c2ncccc2=NC(C(N)=O)C1N (stereo not drawn) [Compound 239] , please.
≤ 5.30

Any idea what its pIC50 is? The compound is COc1nc2c(-c3cccc(O)c3C)c(N)c(C(N)=O)cc2nc1C (atropisomer, axis not shown) [Compound 224]
≤ 5.30

Which pIC50 is listed for NC(=O)c1cc2nccnc2c(-c2cccc(O)c2Cl)c1N (single isomer, unassigned) [Compound 105] ?
6.30 to 7.30

So what does the record say about pIC50 for Cc1cc(O)c(C)c(-c2c(N)c(C(N)=O)nc3cccnc23)c1 [Compound 291] ?
≤ 5.30

Fill in the blank: the reported pIC50 of Cc1ccc(O)c(C)c1-c1c(N)c(C#N)cc2nccnc12 (atropisomer, axis not shown) [Compound 302] is ____.
≤ 5.30

Item under review: Cc1c(Cl)cncc1C1=c2ncccc2=NC(C(N)=O)C1N (stereo not drawn) [Compound 240] . Reported pIC50?
6.30 to 7.30

Entry Cc1ccc(O)c(C)c1-c1c(N)c(C(N)=O)nc2ccccc12 (atropisomer, axis not shown; (P)) [Compound 45] : reported pIC50 = ?
≤ 5.30

Recorded pIC50 for Cc1ccc(O)cc1-c1c(N)c(C(N)=O)cc2nccnc12 (atropisomer, axis not shown; (P)) [Compound 117] , please?
≤ 5.30
